organism: Rattus norvegicus; assay: Antiischemic potency by measurement of increase in time to contracture in globally ischemic isolated perfused rat hearts; type: functional
What EC25 was measured for each of the following?
Numbers only, in nM.

Worked cases, answers included:
{"columns": ["Smiles text", "EC25 [nM]"],
 "data": [
  ["CC1(C)Oc2ccc(S(=O)(=O)N3CCCCC3)cc2[C@@H](/N=C(\\NC#N)Nc2ccc(Cl)cc2)[C@@H]1O", 270],
  ["CC(C)CN(C)S(=O)(=O)c1ccc2c(c1)[C@@H](/N=C(\\NC#N)Nc1ccc(Cl)cc1)[C@H](O)C(C)(C)O2", 250],
  ["C[C@@H]1CCC[C@H](C)N1S(=O)(=O)c1ccc2c(c1)[C@@H](/N=C(\\NC#N)Nc1ccc(Cl)cc1)[C@H](O)C(C)(C)O2", 340]
]}

Challenge: Return reported EC25; argument: CC1(C)Oc2ccc(C#N)cc2[C@@H](/N=C(\NC#N)Nc2ccc(Cl)cc2)[C@@H]1O
Response given: 2500

###

species: Rattus norvegicus; assay: In vitro relaxation of rat aorta precontracted with methoxamine.; type: functional
pIC50: −log10 of the molar value.
Value kind: pIC50

{"columns": ["Smiles text", "Value kind", "Measurement"],
 "data": [
  ["CC1(C)Oc2ccc(S(=O)(=O)N3CCC(Cc4ccccc4)CC3)cc2[C@@H](/N=C(\\NC#N)Nc2ccc(Cl)cc2)[C@@H]1O", "pIC50", "< 4.52"]
]}

Please state, for each entry, its recorded pIC50.
1. CC1(C)Oc2ccc(C#N)cc2[C@H](N(Cc2ncc[nH]2)c2ccc(Cl)cc2)[C@H]1O
2. CC1(C)Oc2ccc(C(=O)Nc3ccccc3)cc2[C@@H](/N=C(\NC#N)Nc2ccc(Cl)cc2)[C@@H]1O

Response given:
["< 4.52", "< 4.00"]
